assayOverview: Proxy for plastic degradation [UPLC/UHPLC]
measurementParameters: pH 9; 60 °C
propertyName: Proxy for plastic degradation (µM)
Please respond with the number in µM and leave the unit unwritten.

Query: Which Proxy for plastic degradation reading was recorded for the protein unnamed (protein) MLSKRGILGALAGGAVAVGCLTAPAHAAGFEKGPDPTTASVTADRGSYDIAQVDVPKGSGTGFADGTIYYPKSTADGTFGAVAVIPGFLEPKSAIDWYGPRLASQGFVVMTLDTTSVFDTPDSRGGQLLAALDYLTSKSTVKDRIDPNRLAVVGHSMGGGGTLSAAANRPNLKAAVALAPWHVSAPLTSVKTPTMIFGSDNDFIAPDGTFAKPFYDGISNAPEKAYVRLKNAGHMAYVFPDKRIAEYTLSWLKRYVDDDTRYTQFLCPGPTNESTIAAYKSTCPM ?
Response: 15

Query: Which Proxy for plastic degradation reading was recorded for the protein unnamed (protein) MNAPLFKLAALTLGLSLASVVLANNPGGGGGTAPDTGTGFPGVSNFSASGSFATTSGSAGASCTVFRPSTLGANNRKHPIIVWGNGTTASPNTYASLLQHWASHGFVVIAANTSNAGTGQEMLGCVDYLTTQNNRSTGTYAGKLDLNRIGAAGHSQGGGGTIMAGQDYRIKVTAPFQPYTIGLGHNSSSQSNQNGPMFLMTGSIDTIASPTLNALPVYTRANVPVFWGELSGASHFEPVGNAGDFRGPATAWFRYHLMDDASAEDTFYGSNCDLCTDRDWDVRRKGIN ?
Response: 9.47

Query: Which Proxy for plastic degradation reading was recorded for the protein unnamed (protein) MALVTALALVTGVGTAPAFADEIGQAPTAANITGDGSFSTSSSAIFGQSGFGGGTAYYPNTAGKYPVVAFAPGFLSDWNALNWLGPRVASWGFVVVGVNTNTPFDFPDARGDQLLAALNWAVNSAPAAVRDKADGSRRGVSGWSMGGGGTLEALAKDTTGTVKAGVPLAPWHTNKTWSKVTEPVFIIGGQNDSVAAPASHAIPFYNSLGGPKSYLERAGADHFFPTKSNGTVSRAVVSFFKRHVSADTRFTPFLCGFSGLDVSNFRSNSC ?
Response: 167

Query: Which Proxy for plastic degradation reading was recorded for the protein unnamed (protein) MGGGGEDNVFAEPGDFDVVTEPGGRDCTIFRPEQLGDDHAVVIWGNGTGASPNTYAGLLRHYASHGFVVVAANTSNAGTGEDMLNCLDFLEGSQLASSVDFSKVGATGHSQGGGGAIMAGVDPRIATTAPIEGFTLGLGHDRDSHDQQNGPMLILSGSADRLVNPRTNHAPLFDATNVPAFWAIAQGAGHFEPVGDGGDFRGISTAWFLFQLEDDPEATTHFVGDDCFVCEDPGFDVEGVKEID ?
Response: 14.9

Query: Which Proxy for plastic degradation reading was recorded for the protein unnamed (protein) MRARIAALVAVPFLGAGAFAVSSVAAGDPPAVRTVPAAAAAPVDWSKTGPHQVKVDKADAHTIYRPSDLGSGGVKNPVVIWGNGTGATPAAYDGLLRHWASHGFVVAAANTKQANNGNAMRAGLDLVTKWNTTSSSPYYGKVDVSRVASSGHSQGGAGAMNAAVDTRVDAVLPIQPGPLAAPRKFKQPTFYMAGQNDRVVWPSWVRNFYNKSGHLPAVFGVVRGATHVAPAGDGGAFRGPTTAWLSFTLRGDASARAQFAGASCGYCGASSPFSNWLRNTRFTSQNG ?
Response: 16.4

Query: Which Proxy for plastic degradation reading was recorded for the protein unnamed (protein) MRVLAMTLALVASTLATPTALAAPPDYGLPGSYPVAYSDVTAVAGGRSVPARVHYPATTSGTNQPVATGRFPVIAFGHGFFQATSKYTSTSTHLASWGFVVVVPTTQGGLSPSHGAFADDLNTGLTWLVAQDGTTGSRFRDHITTTALGVSGHSMGGGAAVLAAARNPKIKAVSTYAAAETNPSAKAAAATLAAPAQFLAGSQDTITPVGDHQRPMFTAKPPARQLRTITGGFHCGFMDSSGLFCDNGSITRAAQLTASKRVMTSWFRHYLSGDTAARDLVWGQPARTDPAVVFEGTE ?
Response: 16.5

Query: Which Proxy for plastic degradation reading was recorded for the protein unnamed (protein) MRIRQALVAFCAAIAMVVAGPSYASALDSPYQRGPDPTEASVKAIAGPFAVDQVKATGHTGFGSGTIFYPKDEKGTFGTIAVSPGFISPEGLVHWYAKTLASHGFVVMAMGTFTVADPPPSRGDQLRAALDYMKTKSPVKDKVDPTRLGLSGHSMGGGGTLDAASKMPDLKAAVPLAPWYLTGGPVIPKVKAPTLVVGANIDFVAPMAIFATPFYKALTSPNKALLTLPGDHMTPFLLANPTLTKFAVSWFKRFLDDDTRYDQFLCPNPASYEGTCPLT ?
Response: 19.7

Query: Which Proxy for plastic degradation reading was recorded for the protein unnamed (protein) MTAAAVSSRYYEETGPHAVTVEQGGPDHTLYYPSDLGAGGTQHPVVIWGNGTGATPETYDEGLRHFASWGFVVAAANTTQAGSGKEMLAGARFLIEEDQRSGSVFYGKIDETRIGAAGHSQGGGGAIAAGADPIVDTTIPIQPGPQGTVGDLHGPAFFISGQFDWIVPSSYVYSRYLGADHVPAVFGELRGADHFFPGDTRLRLIGATTAWFRFHLMADENARGIFFGPSSTCGICTDTEAWSKVDRNAKAQAIPG ?
Response: 15.3
